Values from PubChem BioAssay AID256

test system: CD2F1 mice, L1210 leukemia ip, survival T/C; assay: NCI In Vivo Anticancer Drug Screen. Data for tumor model L1210 Leukemia (intraperitoneal) in CD2F1 (CDF1) mice; settings: endpoint: mean survival time; dose: 25.0 mg/kg/injection; schedule: Q01DX009 (ip); vehicle: saline with Tween-80; higher = longer survival
Inconclusive results and toxic doses are left out.
I'd be grateful if you could share measured T/C for these entries.

See these solved cases before continuing.
{"compound": "C/C=C/c1cc2c(c(=O)o1)C(=O)[C@@H](O)[C@H](C)O2", "T/C": "97 % of control"}
{"compound": "CCCN(CCC)C(=O)[S-].CCCN(CCC)C(=O)[S-].[Ni+2]", "T/C": "106 % of control"}
{"compound": "COc1ccc(SC(=O)N(C)C)cc1", "T/C": "100 % of control"}
{"compound": "O=C(CN1CCCCC1Cl)c1ccccc1 (stereo unspecified)", "T/C": "102 % of control"}
{"compound": "COc1ccc2[nH]cc(CN(C)C)c2c1", "T/C": "100 % of control"}
{"compound": "CC(C)C(O)C(C)N (stereo unspecified)", "T/C": "113 % of control"}
{"compound": "O=C(OCc1ccccc1)C1CC1 (tested in a mixture with another compound)", "T/C": "86 % of control"}
{"compound": "CN(C)C1CCC(Nc2nc(Nc3cc(Cl)cc(Cl)c3)nc3ccccc23)CC1 (stereo unspecified)", "T/C": "102 % of control"}

I need T/C for every entry listed below, if you could help.
1. Cc1cc2nc(Cc3ccccc3)[nH]c2cc1C
2. CC1=NN(c2ccccc2)C(=O)C1(Br)Br
3. COC(=O)C1C2CC(O)C(C2)C1C(=O)OC (stereo unspecified)

[reply]
1. 95 % of control
2. 96 % of control
3. 101 % of control

I need T/C for every entry listed below, if you could help.
1. CN(C)CCCN=Cc1ccc(O)cc1O.CN(C)CCCN=Cc1ccc(O)cc1O.[Ni+2]
2. Nc1nc(N)nc(-c2ccncc2)n1
3. N#CC(Cl)(C#N)c1ccc(C(Cl)(C#N)C#N)cc1
4. Cc1cc(N)c(C)c(C)c1O
5. CC(C)NC(=O)OCc1c(COC(=O)NC(C)C)c(-c2ccc(Cl)c(Cl)c2)n2c1CCC2
6. CC1(C)N=C(N)N=C(N)N1c1cccc(CCCCOc2ccccc2)c1
7. C=Cc1ccncc1

[reply]
93 % of control
106 % of control
101 % of control
90 % of control
121 % of control
108 % of control
95 % of control

I need T/C for every entry listed below, if you could help.
1. CC(=O)CC(=O)Nc1ccccc1
2. O=C(O)Cn1nnc2ccccc21
3. CN(C)N=Nc1ccc(S(=O)(=O)Nc2ncccn2)cc1
4. O=C(N/N=C\c1ccc(F)cc1)N/N=C/c1ccc(F)cc1
5. O=c1[nH]c(=O)n([C@H]2CCCO2)cc1F
6. N#CCC(N)=S
7. Cc1cc2c(C(C)C)c(O)c(O)cc2c(O)c1-c1c(C)cc2c(C(C)C)c(O)c(O)cc2c1O

[reply]
97 % of control
100 % of control
120 % of control
91 % of control
97 % of control
106 % of control
94 % of control

[ask] Given the compound COc1cc(Cl)ccc1NC(=O)Nc1cccc(C(=O)O)c1 , what is its reported T/C?
[reply] 90 % of control
